Each entry below lists one item and its recorded composite z-score value.
Tested on: PRMT1 (protein arginine N-methyltransferase 1)
Experiment: small molecules binding arginine methyltransferase PRMT1 – biochemical, small-molecule microarray, 635 nm fluorescence, primary screen (AID 1088);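 also: binding of Prmt1 protein to compounds spotted on small-molecule microarray slides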
Details: higher = more signal

Some solved cases for reference:
Compound	composite z-score
COc1ccc([Si](C)(C)[C@@H]2[C@@H](CCO)O[C@]3(C(=O)N(Cc4ccccc4)c4ccc(N5CCOC5=O)cc43)[C@H]2C)cc1	1.51
CCOC(=O)C[C@H]1[C@H](OC(=O)c2ccccc2-c2ccccc2)[C@@H](NC(=O)c2ccc3ccccc3n2)c2cc(OCCCO)ccc2N1C(=O)Cc1ccc(OC)cc1	0.115

input: Look at this compound and give its reported composite z-score. CCCCCCCCCCC(O)C1C=CC2C(=O)N(c3ccccc3)C(=O)C2N1Nc1ccc(C#N)cc1 (configuration not stated)
output: 1.37

input: Look at this compound and give its reported composite z-score. COCCOC(=O)N1C(=O)[C@@]2(c3cc(C#CCC(C(=O)OC)C(=O)OC)ccc31)[C@H](c1ccc(OCCO)cc1)N1[C@H](c3ccccc3)[C@H](c3ccccc3)OC(=O)[C@H]1[C@@H]2C(=O)N1CCc2cc(OC)c(OC)cc2C1
output: 1.55

input: Look at this compound and give its reported composite z-score. COc1cc(OC)c(C(O)C2C=CC3C(=O)N(Cc4ccccc4)C(=O)C3N2n2cnnc2)cc1Br (configuration not stated)
output: 1.11

input: Look at this compound and give its reported composite z-score. O=C1C2C=CC(C(O)c3cccc(O)c3)N(Nc3ccc([N+](=O)[O-])cc3)C2C(=O)N1c1ccccc1 (configuration not stated)
output: 0.622

input: Look at this compound and give its reported composite z-score. CCCC[C@@H](O)C1=C(COC)C[C@H]2C(=O)N(C)C(=O)[C@H]2[C@H]1CO
output: 0.0449

input: Look at this compound and give its reported composite z-score. C=CCN1Cc2ccccc2[C@@H]2OC(c3ccc(OCCCO)cc3)=N[C@]2(CC=C)C1=O
output: 1.57

input: Look at this compound and give its reported composite z-score. COCCOC(=O)N1C(=O)[C@@]2(c3ccccc31)[C@H](C(=O)NC[C@H](O)c1ccccc1)[C@H]1C(=O)O[C@H](c3ccccc3)[C@H](c3ccccc3)N1[C@@H]2c1ccc(O)cc1
output: 1.53

input: Look at this compound and give its reported composite z-score. COCCOC(=O)N1C(=O)[C@@]2(c3cc(C#CC4=CCCCC4)ccc31)[C@H](c1ccccc1OCCO)N1[C@H](c3ccccc3)[C@H](c3ccccc3)OC(=O)[C@H]1[C@@H]2C(=O)NC[C@H](O)c1ccccc1
output: 1.54

input: Look at this compound and give its reported composite z-score. CCCC=C(CCC)[C@@H](NC(=O)C(C)(C)C)c1ccc(C(=O)OC)cc1
output: 0.0225

input: Look at this compound and give its reported composite z-score. O=C(NCCN1CCOCC1)[C@@H]1c2ccccc2C(=O)N(C2Cc3ccccc3C2)[C@H]1c1ccc(CO)cc1
output: 0.925

###

Assay: growth of efflux-deficient E. coli DRC39 – strain DRC39, OD650, 48 h, E. coli filamentation inducers, primary screen (AID 1179);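 also: screen aims at cell division blockers that make cells filament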
Conditions: E. coli DRC39 delta-acrAB growth, higher = more signal, called active from +8 up or from −8 down
Quantity Name: z-score
Field format: numeric only.

Compound	Readout Number
CC(C)C(CO)N1C(=O)[C@@H]2[C@H]3C(=O)OCC=C[C@H]3OC23C=CCN(c2ccc(Cl)cc2)C(=O)[C@@H]13 (stereo partly drawn)	0.646

input: Look at this compound and give its reported z-score. CC(C)c1ccc(NN2C(C(O)c3ccc(F)cc3)C=CC3C(=O)N(c4ccccc4)C(=O)C32)cc1 (stereo not drawn)
output: 0.127

input: Look at this compound and give its reported z-score. COc1ccc([Si](C)(C)[C@@H]2[C@@H](CCO)O[C@]3(C(=O)N(Cc4cccc(NC(=O)[C@H](C)O)c4)c4ccccc43)[C@H]2C)cc1
output: -0.811

input: Look at this compound and give its reported z-score. O=C1N(CCS(=O)(=O)c2ccccc2)c2ccccc2[C@H]2OC(c3ccc(OCCCO)cc3)=N[C@@]12Cc1ccccc1
output: 1.13

input: Look at this compound and give its reported z-score. CCOc1cc(C(O)C2C=CC3C(=O)NC(=O)C3N2Nc2ccc(Cl)cc2Cl)ccc1O (stereo not drawn)
output: -0.75

input: Look at this compound and give its reported z-score. C=CCC(OC(C)=O)[C@@H]1[C@@H](N(Cc2cccc3ccccc23)C(=O)Cc2ccc(OC)cc2)c2cc(OCCCO)ccc2N1C(=O)c1ccc(-c2ccccc2)cc1 (stereo partly drawn)
output: -0.165

input: Look at this compound and give its reported z-score. C=C[C@@H](CO)N(Cc1ccc(OC)cc1)S(=O)(=O)c1ccc(Br)cc1
output: 1.88

input: Look at this compound and give its reported z-score. O=C1[C@H]2C=C(I)[C@H](C[C@@H]2OCCOCCO)[C@@]12CO2
output: -0.175

###

Assay: calcein-AM signal in unstimulated myeloma cells – cell-based, calcein-AM fluorescence, 48 h, PK04 Diversity Set, profiling panel (AID 1166);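 also: cells grown under basal conditions without added stimulus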
Conditions: RPMI8226 myeloma viability, higher = more signal
Each entry below lists one item and its recorded z-score value.
Field format: numeric only.

Some solved cases for reference:
Molecule	Readout Number
COc1ccccc1CN1C(=O)c2ccccc2[C@](Cc2ccccc2I)(C(=O)O)[C@@H]1c1ccc(CO)cc1	-1.7
COCCCNC(=O)[C@@]1(CCC(=O)OC(C)(C)C)N=C(c2ccc(OCCCO)cc2)O[C@H]1c1ccccc1N=[N+]=[N-]	-1.16
CO[C@H]1O[C@H](CO)[C@@H](OC(=O)CCc2ccccc2)[C@@H]2OC(=O)[C@@H](Cc3ccccc3)C/C=C/C[C@H](Cc3ccccc3)C(=O)O[C@@H]12	-0.711
C=CCC(OC(C)=O)[C@@H]1[C@@H](N(Cc2cccc3ccccc23)C(=O)Cc2ccc(F)cc2)c2cc(OCCCO)ccc2N1C(=O)c1ccc2ccccc2c1 (stereo partly specified)	-0.754

input: Look at this molecule and give its reported z-score. C=CC[C@]1(C(=O)N2CCOCC2)COC(c2ccc(OCCCO)cc2)=N1
output: -1.21

input: Look at this molecule and give its reported z-score. CCCC#C[Si](O[C@H](CC)c1cn([C@H](C)c2ccccc2)nn1)(C(C)C)C(C)C
output: -1.74

###

Test system: XIP peptide (Xip251-270)
Assay: compounds binding XIP fragment 251-270 – biochemical, small-molecule microarray, fluorescence 635/667 nm, 0.5 µg/mL protein, primary screen (AID 1183)
Settings: fluorescence 635 nm, higher = more signal
Binary classification by composite z-score, with 0.5 as an inclusive lower bound for True; all other cases are False.

> print(dat)
                               compound  label.value
1  COCC(=C=CC[C@H](O)c1ccc(OCCO)cc1)CCO        False

input: Evaluate COc1cccc(C)c1NC(=O)O[C@H]1[C@H](OC(=O)Nc2ccc3c(c2)OCO3)[C@@H](OC(=O)Nc2ccc3c(c2)OCO3)[C@@H](OC)O[C@@H]1CO : composite z-score at minimum 0.5?
output: False

input: Evaluate CC#CCO[Si](C#Cc1ccccc1)(C(C)C)C(C)C : composite z-score at minimum 0.5?
output: False

input: Evaluate O=C(O)[C@@H]1[C@@H]2C(=O)N(c3ccccc3)C(=O)[C@@H]2C[C@@H]1Sc1ccccc1 : composite z-score at minimum 0.5?
output: False

input: Evaluate CC(C)(C)OC(=O)COc1cccc(C(=O)CCN2CCOCC2)c1 : composite z-score at minimum 0.5?
output: False

input: Evaluate COC(=O)C1(CC(C)C)C=C2C(=C(c3ccccc3)C(=O)C2C)CN1 (stereo unspecified) : composite z-score at minimum 0.5?
output: True

input: Evaluate COc1ccc([Si](C)(C)[C@H]2[C@H](CC(=O)N3Cc4ccccc4C[C@H]3CO)O[C@@]3(C(=O)N(Cc4ccc(N5CCOC5=O)cc4)c4ccccc43)[C@@H]2C)cc1 : composite z-score at minimum 0.5?
output: True

input: Evaluate OCCCC1=CC(c2ccc(CN3CCCC3)cc2)N(Cc2cc3c(cc2Br)OCO3)CC1 (stereo unspecified) : composite z-score at minimum 0.5?
output: False

input: Evaluate Cc1ccc(S[C@]2(C(=O)NCC(F)(F)F)CC(=O)N(Cc3cc(C(F)(F)F)cc(C(F)(F)F)c3)[C@@H]2c2ccc(CO)cc2)cc1 : composite z-score at minimum 0.5?
output: True

input: Evaluate O=C(O)[C@@H]1C[C@@H]2C(=O)N3CCC[C@H]3C(=O)N2[C@@H]1c1ccc(O)cc1 : composite z-score at minimum 0.5?
output: True

###

Assay: probe aNOTCH3 binding on compound microarray – biochemical, small-molecule microarray, 635/667 nm fluorescence, primary screen (AID 1120);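 also: probe is a biotin-tagged antibody raised against NOTCH3 rather than NOTCH3 protein; score merges spot fluorescence near 667 nm with spot signal to noise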
Conditions: higher = more signal
Each entry below lists one item and its recorded composite z-score value.
Field format: numeric only.

Some solved cases for reference:
Compound	Readout Number
CCOC(=O)C1=C[C@@H](c2ccccc2)N(S(=O)(=O)c2ccc(C)cc2)[C@H]1c1ccc(OC)cc1	0.815
CC1CC/C=C\[C@H]2OC34C=CCN(Cc5ccccc5)C(=O)[C@H]3N(C(CO)C(C)C)C(=O)[C@@H]4C2C(=O)O1 (stereo not given in full)	0.0666

input: Look at this compound and give its reported composite z-score. C=C[C@H]1C(C(=O)OCC)=CC[C@@H](c2ccccc2)N1S(=O)(=O)c1ccc(C)cc1
output: 0.382

input: Look at this compound and give its reported composite z-score. CN(C)C(=O)[C@@]1(Cc2ccccc2CN=[N+]=[N-])N=C(c2ccc(OCCCO)cc2)O[C@H]1c1ccccc1N=[N+]=[N-]
output: 0.612

input: Look at this compound and give its reported composite z-score. [N-]=[N+]=Nc1ccccc1[C@@H]1OC(c2ccc(OCCCO)cc2)=N[C@]1(Cc1ccccc1)C(=O)O
output: 0.136

input: Look at this compound and give its reported composite z-score. NC(=O)NCC#Cc1ccc2c(c1)[C@]1(C(=O)N2)[C@H](c2ccccc2OCCO)N2[C@H](c3ccccc3)[C@H](c3ccccc3)OC(=O)[C@H]2[C@@H]1C(=O)NC[C@H](O)c1ccccc1
output: -0.143
